Data provenance: patent US8580811B2

assayed target: human AR (Homo sapiens, UniProt P10275)
Construct: expressed in transfected cells; host or cells: COS-1 cells
assay overview: IR Binding Assay: whole cell competitive binding of test compounds against 3H-DHT in COS-1 cells transfected with pRShAR
pKi: −log10 of the molar value.
reported endpoint: pKi

// known answers, use as guide
O=c1cc(Cl)c2c3c(ccc2[nH]1)N(CC(F)(F)F)[C@H]1CCC[C@@H]31 [Compound 163]
< 8.00
O=c1cc(Cl)c2c(ccc3[nH]c4c(c32)CCC4)[nH]1 [Compound 107]
< 8.00

Prompt: Recorded pKi of Cc1c(C)n(CCO)c2ccc3[nH]c(=O)cc(Cl)c3c12 [Compound 190] , please.
Response: < 8.00

Prompt: Next up: CC1c2c(ccc3[nH]c(=O)cc(Cl)c23)N(CC(F)(F)F)C1c1cccs1 (racemic) [Compound 161]
Response: > 8.30

----------
assayed target: human AR (Homo sapiens, UniProt P10275)
Construct: expressed in transfected cells; host or cells: COS-1 cells
Sequence (P10275 1-920): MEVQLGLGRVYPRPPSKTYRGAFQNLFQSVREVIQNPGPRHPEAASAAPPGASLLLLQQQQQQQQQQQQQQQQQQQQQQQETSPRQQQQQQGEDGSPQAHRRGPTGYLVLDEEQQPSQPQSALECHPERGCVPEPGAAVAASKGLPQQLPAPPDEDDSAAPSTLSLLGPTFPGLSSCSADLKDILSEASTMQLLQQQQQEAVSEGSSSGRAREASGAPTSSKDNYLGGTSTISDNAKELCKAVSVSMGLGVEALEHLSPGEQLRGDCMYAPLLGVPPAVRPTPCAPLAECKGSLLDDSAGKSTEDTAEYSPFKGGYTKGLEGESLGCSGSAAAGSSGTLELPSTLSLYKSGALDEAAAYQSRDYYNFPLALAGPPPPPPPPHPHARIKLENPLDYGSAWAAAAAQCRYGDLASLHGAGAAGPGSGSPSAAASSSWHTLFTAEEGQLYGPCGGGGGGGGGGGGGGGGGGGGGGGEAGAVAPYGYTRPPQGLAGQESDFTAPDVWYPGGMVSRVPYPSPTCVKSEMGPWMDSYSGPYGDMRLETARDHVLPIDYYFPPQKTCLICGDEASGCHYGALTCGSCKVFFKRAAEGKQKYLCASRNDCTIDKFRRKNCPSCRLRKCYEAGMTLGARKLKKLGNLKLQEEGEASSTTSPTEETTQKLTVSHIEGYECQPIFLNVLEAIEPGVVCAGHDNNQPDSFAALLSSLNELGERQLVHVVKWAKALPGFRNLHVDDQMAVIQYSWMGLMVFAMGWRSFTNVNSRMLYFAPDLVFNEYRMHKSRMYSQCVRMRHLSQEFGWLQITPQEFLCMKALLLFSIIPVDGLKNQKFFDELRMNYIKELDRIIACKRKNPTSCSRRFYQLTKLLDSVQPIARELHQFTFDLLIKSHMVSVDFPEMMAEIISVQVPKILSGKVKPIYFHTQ
assay overview: IR Binding Assay: whole cell competitive binding of test compounds against 3H-DHT in COS-1 cells transfected with pRShAR
pKi: −log10 of the molar value.
reported endpoint: pKi

Prompt: Returns the measured pKi for the input compound. Input: Cc1c(C)n(CC(F)(F)Cl)c2ccc3[nH]c(=O)cc(C(F)(F)F)c3c12 [Compound 220]
Response: > 8.30

Prompt: Moving on to the next compound: Cc1c(CCCCl)c2c3c(Cl)cc(=O)[nH]c3ccc2n1CC(F)(F)C(F)(F)F [Compound 269]
Response: < 8.00

Prompt: One more compound: CCc1c(C)c2c3c(C(F)(F)F)cc(=O)[nH]c3ccc2n1CC(F)(F)Cl [Compound 224]
Response: > 8.30

Prompt: How about Cc1c(C)n(C)c2ccc3[nH]c(=O)cc(Cl)c3c12 [Compound 208] ?
Response: 8.00 to 8.30

Prompt: Same for Cc1c(C)n(CC(F)F)c2ccc3[nH]c(=O)cc(Cl)c3c12 [Compound 191]
Response: > 8.30
